Target: extracellular domain of human BLyS protein (hBLyS-ECD), His-tagged, Ala134-Leu285 (human, UniProt Q9Y275 134-285)
Sequence (Q9Y275 134-285): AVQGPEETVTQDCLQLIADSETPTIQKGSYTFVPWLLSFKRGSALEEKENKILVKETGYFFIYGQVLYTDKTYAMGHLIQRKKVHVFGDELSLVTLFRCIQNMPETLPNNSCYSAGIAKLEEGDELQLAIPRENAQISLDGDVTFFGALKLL
Test: cell-based or functional assay
measured quantity: OD450 nm (as headed), mouse B lymphocyte proliferation; antibody 4 nM

Req: Provide OD450 nm (as headed), mouse B lymphocyte proliferation; antibody 4 nM value for the following binder: c67A2E1D10 (antibody, V domains shown) VH: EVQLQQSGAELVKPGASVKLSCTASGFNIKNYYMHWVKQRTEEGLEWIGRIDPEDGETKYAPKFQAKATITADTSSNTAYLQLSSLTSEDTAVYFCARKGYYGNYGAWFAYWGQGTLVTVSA VL: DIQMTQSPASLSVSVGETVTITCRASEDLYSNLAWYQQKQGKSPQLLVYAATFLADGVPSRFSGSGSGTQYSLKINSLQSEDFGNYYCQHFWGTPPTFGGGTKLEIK
Resp: 3500

Req: Provide OD450 nm (as headed), mouse B lymphocyte proliferation; antibody 4 nM value for the following binder: c93C6F10D3 (antibody, V domains shown) VH: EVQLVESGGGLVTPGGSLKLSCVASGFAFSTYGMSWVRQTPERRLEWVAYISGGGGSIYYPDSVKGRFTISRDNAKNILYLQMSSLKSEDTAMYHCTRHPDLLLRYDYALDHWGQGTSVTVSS VL: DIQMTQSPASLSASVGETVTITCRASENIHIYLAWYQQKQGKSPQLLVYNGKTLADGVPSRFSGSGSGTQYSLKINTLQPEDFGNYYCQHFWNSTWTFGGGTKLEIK
Resp: 527

Req: Provide OD450 nm (as headed), mouse B lymphocyte proliferation; antibody 4 nM value for the following binder: c8E7D9C7F5 (antibody, V domains shown, also called chimeric antibody c8E7D9C7F5) VH: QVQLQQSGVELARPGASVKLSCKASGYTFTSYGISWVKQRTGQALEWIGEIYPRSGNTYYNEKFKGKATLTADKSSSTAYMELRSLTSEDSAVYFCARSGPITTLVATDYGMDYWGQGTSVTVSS VL: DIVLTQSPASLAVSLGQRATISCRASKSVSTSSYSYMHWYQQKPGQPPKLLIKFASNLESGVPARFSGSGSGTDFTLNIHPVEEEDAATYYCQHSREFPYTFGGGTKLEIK
Resp: 488

Req: Provide OD450 nm (as headed), mouse B lymphocyte proliferation; antibody 4 nM value for the following binder: c97A3C2H4 (antibody, V domains shown, also called chimeric antibody c97A3C2H4) VH: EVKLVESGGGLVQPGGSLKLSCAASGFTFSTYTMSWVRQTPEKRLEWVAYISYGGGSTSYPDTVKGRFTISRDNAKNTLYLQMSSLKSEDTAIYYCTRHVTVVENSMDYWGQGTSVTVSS VL: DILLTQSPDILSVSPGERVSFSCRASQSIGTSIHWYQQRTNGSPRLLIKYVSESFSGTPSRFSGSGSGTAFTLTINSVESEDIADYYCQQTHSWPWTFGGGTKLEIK
Resp: 578
